Data credit: patent US20040037843A1

experimentalSystem: HLA-A*0201 (human)
method: inhibition of 125I probe peptide binding to purified HLA
experimentalConditions: remark: other sources report otherwise
pIC50: −log10 of the molar value.
Lab note: anything with pIC50 at or over 7 counts as yes; the rest go in no.

// below: answered binders
[
  {
    "binder": "TLMSAMTNLA [Peptide 20.0312 … (PAP.112)]",
    "groupLabel": "no"
  },
  {
    "binder": "LLLARAASL [Peptide 20.0044 … (PAP.6)]",
    "groupLabel": "no"
  },
  {
    "binder": "SLSLGFLFLL [Peptide 1419.51 … (PAP.13)]",
    "groupLabel": "yes"
  },
  {
    "binder": "LLARAASLSL [Peptide 20.0203 … (PAP.7)]",
    "groupLabel": "no"
  }
]

Please tell me: is the binder VLAKELKFVTL [Peptide 63.0142 … (PAP.30)] at or over 7 in terms of pIC50?
yes

Please tell me: is the binder AASLSLGFLFL [Peptide 63.0137 … (PAP.11)] at or over 7 in terms of pIC50?
no
